B1: PhoQ; a variant is named by its letters at X, in order, P23837 (parent)
chain: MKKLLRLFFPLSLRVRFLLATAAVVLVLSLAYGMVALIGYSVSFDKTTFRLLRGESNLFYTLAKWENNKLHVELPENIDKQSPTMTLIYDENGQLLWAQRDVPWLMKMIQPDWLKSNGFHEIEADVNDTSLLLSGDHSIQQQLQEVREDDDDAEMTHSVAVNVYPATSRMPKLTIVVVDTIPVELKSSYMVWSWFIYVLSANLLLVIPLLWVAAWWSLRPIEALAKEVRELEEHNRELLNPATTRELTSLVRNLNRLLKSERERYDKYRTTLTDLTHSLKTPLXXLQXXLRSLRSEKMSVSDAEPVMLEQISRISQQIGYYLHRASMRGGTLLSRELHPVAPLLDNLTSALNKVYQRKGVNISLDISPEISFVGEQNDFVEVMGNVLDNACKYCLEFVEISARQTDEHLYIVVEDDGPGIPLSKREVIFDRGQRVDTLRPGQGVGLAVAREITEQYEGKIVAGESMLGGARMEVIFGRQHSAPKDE

variants of: B1; assay: enrichment ratio after two sorts for PhoP signalling (ratio (wild type AVST 3.29)); higher = more functional; conditions: with PhoP (E. coli)
The full ranking holds about 140,000 sequences; the median of “enrichment ratio after two sorts for PhoP signalling” is about 0, and the highest 2% start at about 11. The list comes from a sample in which the highest values are over-represented; it also holds close analogues and randomly drawn sequences.
property-measured: enrichment ratio

Sample records with enrichment ratio:
| mutation-list | enrichment ratio |
| --- | --- |
| YSMM | 14.3 |
| HKAP | ≤ 0.25 |
| TMPT | ≤ 0.25 |
| DNCF | ≤ 0.25 |
| SCMM | 14.4 |
| HSWS | ≤ 0.25 |

Input line: Answer with reported enrichment ratio of `SEEV`
Output line: 1.98

Input line: Give enrichment ratio for `KYSH`
Output line: ≤ 0.25

Input line: Using known records, supply enrichment ratio for `KYIY`
Output line: ≤ 0.25

Input line: For the variant `SEMV` , give its reported enrichment ratio.
Output line: 23.8

Input line: Please list enrichment ratio recorded for the variant `MESI`
Output line: 12.5

Input line: Note down enrichment ratio recorded for `QVFF`
Output line: ≤ 0.25
